Cited source for all entries: patent US9573956B2

biological target: HDAC1 (Homo sapiens); experiment: HDAC enzyme activity assay (fluorogenic substrate), HDAC1; type: biochemical; conditions: recombinant enzyme; read-out: HDAC1 inhibition (IC50)
Sequence (Q13547 whole entry): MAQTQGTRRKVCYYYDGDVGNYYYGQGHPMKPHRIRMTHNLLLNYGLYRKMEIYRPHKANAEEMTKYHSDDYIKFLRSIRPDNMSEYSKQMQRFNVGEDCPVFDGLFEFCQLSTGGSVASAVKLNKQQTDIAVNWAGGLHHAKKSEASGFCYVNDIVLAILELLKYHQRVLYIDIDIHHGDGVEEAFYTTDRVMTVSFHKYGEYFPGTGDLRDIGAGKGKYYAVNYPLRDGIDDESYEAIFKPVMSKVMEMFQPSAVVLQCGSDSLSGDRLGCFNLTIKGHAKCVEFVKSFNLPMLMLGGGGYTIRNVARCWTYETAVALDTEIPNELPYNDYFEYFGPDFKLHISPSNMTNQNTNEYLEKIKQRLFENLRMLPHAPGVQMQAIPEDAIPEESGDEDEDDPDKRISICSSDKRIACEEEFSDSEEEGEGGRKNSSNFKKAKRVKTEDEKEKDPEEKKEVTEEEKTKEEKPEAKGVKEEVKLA
pIC50: −log10 of the molar value.
value kind: pIC50

Completed entries (count: 6):
molecule: CCCc1nn(C)c2c(=O)[nH]c(-c3cc(Cc4ccc(C(=O)NO)o4)ccc3OCC)nc12
result: 5.00 to 6.00

molecule: CCCc1nc(C)c2c(=O)[nH]c(-c3cc(CC4CC(C(=O)NO)C4)ccc3OCC)nn12 (centres unmarked)
result: 6.00 to 8.00

molecule: CC(c1nc2c(cnn2C2CCOCC2)c(=O)[nH]1)N1CC(Cc2ccc(C(=O)NO)s2)C1 (centres unmarked)
result: 5.00 to 6.00

molecule: CCCc1nn(C)c2c(=O)[nH]c(-c3cc(CC4CC4C(=O)NO)ccc3OCC)nc12 (centres unmarked)
result: 5.00 to 6.00

molecule: CCCc1nn(C)c2c(=O)[nH]c(-c3cc(Oc4ccc(C(=O)NO)cc4)ccc3OCC)nc12
result: 6.00 to 8.00

molecule: CCCc1nn(C)c2c(=O)[nH]c(-c3cc(CC4CCN(c5ncc(C(=O)NO)cn5)CC4)ccc3OCC)nc12
result: 6.00 to 8.00

Item CCCc1nn(C)c2c(=O)[nH]c(-c3cc(NC4CCN(c5ccc(C(=O)NO)cc5)CC4)ccc3OCC)nc12 has what recorded pIC50? 5.00 to 6.00

And the next one, CCCc1nn(C)c2c(=O)[nH]c(-c3cc(OC4CCN(c5ncc(C(=O)NO)cn5)CC4)ccc3OCC)nc12 ? 6.00 to 8.00

And the next one, CCCc1nn(C)c2c(=O)[nH]c(-c3cc(S(=O)(=O)Nc4ccc(/C=C/C(=O)NO)cc4)ccc3OCC)nc12 ? 6.00 to 8.00

And the next one, CCCc1nn(C)c2c(=O)[nH]c(-c3cc(Nc4ccc(C(=O)NO)cc4)ccc3OCC)nc12 ? 6.00 to 8.00

And the next one, CC(c1nc2c(cnn2C2CCOCC2)c(=O)[nH]1)N1CC(Oc2ccc(/C=C/C(=O)NO)cc2)C1 (centres unmarked) ? 6.00 to 8.00

And the next one, CCCc1nc(C)c2c(=O)[nH]c(-c3cc(S(=O)(=O)N4CCN(c5ncc(C(=O)NO)cn5)CC4)ccc3OCC)nn12 ? > 8.00

And the next one, CCCc1nn(C)c2c(=O)[nH]c(-c3cc(N4CCC5(CCN(c6ncc(C(=O)NO)cn6)CC5)C4)ccc3OCC)nc12 ? 6.00 to 8.00
